molecular target: glutathione-S-transferase-labeled FXR human protein (Homo sapiens, UniProt Q96RI1); experiment: FXR biochemical experiment (alphascreen, coactivator recruitment); details: alphascreen; activation of FXR binding reaction with steroid receptor coactivator; read-out: FXR enzyme activity EC50
Sequence (Q96RI1 whole entry): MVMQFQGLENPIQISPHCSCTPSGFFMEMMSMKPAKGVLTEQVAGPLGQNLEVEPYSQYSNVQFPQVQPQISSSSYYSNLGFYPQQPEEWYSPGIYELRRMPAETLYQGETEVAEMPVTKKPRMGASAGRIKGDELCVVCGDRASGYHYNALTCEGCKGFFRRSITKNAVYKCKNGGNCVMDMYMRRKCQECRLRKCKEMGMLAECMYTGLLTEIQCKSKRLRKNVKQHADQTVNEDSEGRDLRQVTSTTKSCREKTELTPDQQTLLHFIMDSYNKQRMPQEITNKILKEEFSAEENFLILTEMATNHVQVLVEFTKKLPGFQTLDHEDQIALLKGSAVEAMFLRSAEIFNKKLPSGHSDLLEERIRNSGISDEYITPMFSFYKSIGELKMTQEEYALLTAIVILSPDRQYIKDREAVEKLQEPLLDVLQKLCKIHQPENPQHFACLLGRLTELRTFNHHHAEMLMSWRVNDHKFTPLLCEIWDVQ
pEC50: −log10 of the molar value.
Note: every record was labeled by where its pEC50 sits among class A = under 6, class B = from 6 up to 7, class C = 7 and over

# compound, target_entity, discrete_label
measured = [
    ("O=C(O)c1cccc(N2C(=O)CCc3cc(OCc4c(-c5c(Cl)cccc5Cl)noc4C4CC4)ccc32)c1 [Compound 41]", "glutathione-S-transferase-labeled FXR human protein (Homo sapiens, UniProt Q96RI1)", "class B"),
    ("O=C(O)C12CC(CN3C(=O)C4(CC4)c4cc(OCc5c(-c6c(Cl)cccc6Cl)noc5C5CC5)ccc43)(C1)C2 [Compound 19]", "glutathione-S-transferase-labeled FXR human protein (Homo sapiens, UniProt Q96RI1)", "class A"),
]

Task item: Classify this compound: O=C(O)CCCN1C(=O)C2(CC2)c2cc(OCc3c(-c4c(Cl)cccc4Cl)noc3C3CC3)ccc21 [Compound 16]
Reply: class A

Task item: Classify this compound: O=C(O)c1cc(F)cc(N2C(=O)C3(CC3)c3cc(OCc4c(-c5c(Cl)cccc5Cl)noc4C4CC4)ccc32)c1 [Compound 27]
Reply: class B

Task item: Classify this compound: COc1cc(C(=O)O)ccc1N1C(=O)CCc2cc(OCc3c(-c4c(Cl)cccc4Cl)noc3C3CC3)ccc21 [Compound 44]
Reply: class C

Task item: Classify this compound: O=C(O)c1cnc(N2C(=O)CCc3cc(OCc4c(-c5c(Cl)cccc5Cl)noc4C4CC4)ccc32)c(F)c1 [Compound 35]
Reply: class C

----------
Reported values of pEC50 for individual entries
target: glutathione-S-transferase-labeled FXR human protein (Homo sapiens, UniProt Q96RI1); construct: purchased Invitrogen; assay: FXR biochemical experiment (alphascreen, coactivator recruitment); conditions: alphascreen; activation of FXR binding reaction with steroid receptor coactivator; read-out: FXR enzyme activity EC50
API: returns pEC50 as number; meaning -log10 of concentration in mol/L.

Below: 3 molecules and their reported pEC50.
# smiles_text, readout_kind, readout_value
data = [
    ("O=C(O)c1ccc(N2C(=O)CCc3cc(OCc4c(-c5c(Cl)cccc5Cl)noc4C4CC4)ccc32)c(F)c1", "pEC50", 6.90),
    ("O=C(O)c1ccc(N2C(=O)C3(CC3)c3cc(OCc4c(-c5c(Cl)cccc5Cl)noc4C4CC4)ccc32)cc1", "pEC50", 7.00),
    ("CC1(C)C(=O)N(c2ccc(C(=O)O)cc2)c2ccc(OCc3c(-c4c(Cl)cccc4Cl)noc3C3CC3)cc21", "pEC50", 7.05),
]

Next up:
Task item: Could you share which pEC50 value was measured for O=C(O)c1csc(N2C(=O)CCc3cc(OCc4c(-c5c(Cl)cccc5Cl)noc4C4CC4)ccc32)c1 ?
Reply: 6.97

----------
molecular target: glutathione-S-transferase-labeled FXR human protein (Homo sapiens, UniProt Q96RI1); construct: purchased Invitrogen; assay: FXR biochemical experiment (alphascreen, coactivator recruitment); conditions: highest signal relative to reference compound chenodeoxycholic acid (Examples 1-30); read-out: FXR enzyme activity Efficacy (activation efficacy percent)
Reported values of Emax for individual entries
I only need the number, in %, no unit after it.

# molecule, target_entity, Emax (%)
data = [
    ("O=C(O)c1ccc(N2C(=O)C3(CC3)c3cc(OCc4c(-c5c(Cl)cccc5Cl)noc4C4CC4)ccc32)cc1", "glutathione-S-transferase-labeled FXR human protein (Homo sapiens, UniProt Q96RI1)", 169),
]

Task item: Could you share which Emax value was measured for O=C(O)c1cccc(CN2C(=O)C3(CCCC3)c3cc(OCc4c(-c5c(Cl)cccc5Cl)noc4C4CC4)ccc32)c1 ?
Reply: 82

Task item: Could you share which Emax value was measured for Cc1sc(N2C(=O)C3(CC3)c3cc(OCc4c(-c5c(Cl)cccc5Cl)noc4C4CC4)ccc32)nc1C(=O)O ?
Reply: 35

Task item: Could you share which Emax value was measured for O=C(O)CCCN1C(=O)C2(CC2)c2cc(OCc3c(-c4c(Cl)cccc4Cl)noc3C3CC3)ccc21 ?
Reply: 151

----------
target: glutathione-S-transferase-labeled FXR human protein (Homo sapiens, UniProt Q96RI1); experiment: FXR biochemical experiment (alphascreen, coactivator recruitment); conditions: alphascreen; activation of FXR binding reaction with steroid receptor coactivator; read-out: FXR enzyme activity EC50
Reported values of pEC50 for individual entries
API: returns pEC50 as number; meaning -log10 of concentration in mol/L.

# compound, pEC50
rows = [
    ("O=C(O)c1ccc(N2C(=O)C3(CC3)c3cc(OCc4c(-c5c(Cl)cccc5Cl)noc4C4CC4)ccc32)s1 [Compound 5]", 6.82),
    ("O=C(O)c1cnc(N2C(=O)CCc3cc(OCc4c(-c5c(Cl)cccc5Cl)noc4C4CC4)ccc32)s1 [Compound 38]", 6.85),
    ("O=C(O)c1ccc(N2C(=O)C3(CC3)c3cc(OCc4c(-c5c(Cl)cccc5Cl)noc4C4CC4)ccc32)cc1F [Compound 10]", 5.99),
    ("O=C(O)c1ccc(N2C(=O)CCc3cc(OCc4c(-c5c(Cl)cccc5Cl)noc4C4CC4)ccc32)s1 [Compound 46]", 7.08),
    ("O=C(O)c1ccc(N2C(=O)C3(CC3)c3cc(OCc4c(-c5c(Cl)cccc5Cl)noc4C4CC4)cnc32)cc1 [Compound 30]", 5.82),
]

Next up:
Task item: Could you share which pEC50 value was measured for O=C(O)c1ccc(N2C(=O)CCc3cc(OCc4c(-c5c(Cl)cccc5Cl)noc4C4CC4)ccc32)cc1 [Compound 33] ?
Reply: 6.84

----------
Target: glutathione-S-transferase-labeled FXR human protein (Homo sapiens)
Construct: purchased Invitrogen
Assay: FXR biochemical experiment (alphascreen, coactivator recruitment)
Conditions: highest signal relative to reference compound chenodeoxycholic acid (Examples 1-30); read-out: FXR enzyme activity Efficacy (activation efficacy percent)
Description: FXR Biochemical Experiment To test the effect of the compound on the activation of the FXR binding reaction by a Homogenous Proximity Luminescent Amplified Assay (alphascreen). 1. Protein: glutathione-S-transferase-labeled FXR human protein (Invitrogen) 2. Coactivator: biotin-labeled steroid receptor coactivator (Anaspec) 3. […] 5. EC50 test: Envision was used to excite at 680 nm and the […] signal at 520-620 nm was read. […]
Reported values of Emax for individual entries
I only need the number, in %, no unit after it.

Below: 3 molecules and their reported Emax.
# molecule, unit_abbreviation, readout_value
data = [
    ("COc1cc(N2C(=O)C3(CC3)c3cc(OCc4c(-c5c(Cl)cccc5Cl)noc4C4CC4)ccc32)ccc1C(=O)O [Compound 9]", "%", 229),
    ("O=C(O)c1ccc(CN2C(=O)C3(CC3)c3cc(OCc4c(-c5c(Cl)cccc5Cl)noc4C4CC4)ccc32)cc1 [Compound 2]", "%", 155),
    ("O=C(O)c1cc(F)cc(N2C(=O)C3(CC3)c3cc(OCc4c(-c5c(Cl)cccc5Cl)noc4C4CC4)ccc32)c1 [Compound 27]", "%", 218),
]

Task item: # get_value(readout= Emax, system= glutathione-S-transferase-labeled FXR human protein (Homo sapiens)) for O=C(O)c1ccc(N2C(=O)C3(CC3)c3cc(OCc4c(-c5c(Cl)cccc5Cl)noc4C4CC4)cnc32)cc1 [Compound 30]
Reply: 228

Task item: # get_value(readout= Emax, system= glutathione-S-transferase-labeled FXR human protein (Homo sapiens)) for O=C(O)CCN1C(=O)C2(CC2)c2cc(OCc3c(-c4c(Cl)cccc4Cl)noc3C3CC3)ccc21 [Compound 17]
Reply: 169

----------
biological target: glutathione-S-transferase-labeled FXR human protein (Homo sapiens); construct: purchased Invitrogen; assay: FXR biochemical experiment (alphascreen, coactivator recruitment); conditions: highest signal relative to reference compound chenodeoxycholic acid (Examples 1-30); read-out: FXR enzyme activity Efficacy (activation efficacy percent)
Answer Not satisfied if Emax is under 200%, and Satisfied if it is 200% or more.

# compound, discrete_label
measured = [
    ("O=C(O)c1cccc(CN2C(=O)C3(CC3)c3cc(OCc4c(-c5c(Cl)cccc5Cl)noc4C4CC4)ccc32)c1", "Not satisfied"),
    ("O=C(O)c1ccccc1N1C(=O)C2(CC2)c2cc(OCc3c(-c4c(Cl)cccc4Cl)noc3C3CC3)ccc21", "Not satisfied"),
    ("O=C(O)c1ccc(N2C(=O)C3(CC3)c3cc(OCc4c(-c5c(Cl)cncc5Cl)noc4C4CC4)ccc32)cc1", "Satisfied"),
]

Task item: # bool: Emax of O=C(O)c1ccc(N2C(=O)C3(CC3)c3cc(OCc4c(-c5ccccc5OC(F)(F)F)noc4C4CC4)ccc32)cc1 >= 200%
Reply: Not satisfied

Task item: # bool: Emax of Cn1cc(C(=O)O)c2ccc(N3C(=O)C4(CC4)c4cc(OCc5c(-c6c(Cl)cccc6Cl)noc5C5CC5)ccc43)cc21 >= 200%
Reply: Satisfied

Task item: # bool: Emax of O=C(O)c1ccc(N2C(=O)C3(CC3)c3cc(OCc4c(-c5c(Cl)cccc5Cl)noc4C4CC4)ccc32)cc1Cl >= 200%
Reply: Not satisfied

Task item: # bool: Emax of O=C(O)c1csc(N2C(=O)C3(CC3)c3cc(OCc4c(-c5c(Cl)cccc5Cl)noc4C4CC4)ccc32)c1 >= 200%
Reply: Not satisfied

Task item: # bool: Emax of CC1(C)C(=O)N(c2cccc(C(=O)O)c2)c2ccc(OCc3c(-c4c(Cl)cccc4Cl)noc3C3CC3)cc21 >= 200%
Reply: Not satisfied

Task item: # bool: Emax of O=C(O)c1ccc(N2C(=O)C3(CC3)c3cc(OCc4c(-c5c(Cl)cccc5Cl)noc4C4CC4)ccc32)nc1 >= 200%
Reply: Not satisfied

Task item: # bool: Emax of O=C(O)c1cccc(N2C(=O)C3(CC3)c3cc(OCc4c(-c5c(Cl)cccc5Cl)noc4C4CC4)ccc32)c1 >= 200%
Reply: Not satisfied

Task item: # bool: Emax of O=C(O)c1cncc(N2C(=O)C3(CC3)c3cc(OCc4c(-c5c(Cl)cccc5Cl)noc4C4CC4)ccc32)c1 >= 200%
Reply: Not satisfied

Task item: # bool: Emax of O=C(O)C1CC=C(N2C(=O)C3(CC3)c3cc(OCc4c(-c5c(Cl)cccc5Cl)noc4C4CC4)ccc32)CC1 (stereo not drawn) >= 200%
Reply: Not satisfied
